These data points were gathered from patent US20240101576A1.

biological target: EGFR exon 20 FQEA Ins A763_V764 (Ba/F3 cells) (Homo sapiens, UniProt P00533, INS763FQEA); test: Inhibitor activity on EGFR-dependent cell growth (CellTiter-Glo, 72 h), Ba/F3 EGFR exon 20 FQEA Ins; details: read-out: BaF3 FQEA IC50
Sequence (P00533 with tags, fused parts or gaps INS763FQEA): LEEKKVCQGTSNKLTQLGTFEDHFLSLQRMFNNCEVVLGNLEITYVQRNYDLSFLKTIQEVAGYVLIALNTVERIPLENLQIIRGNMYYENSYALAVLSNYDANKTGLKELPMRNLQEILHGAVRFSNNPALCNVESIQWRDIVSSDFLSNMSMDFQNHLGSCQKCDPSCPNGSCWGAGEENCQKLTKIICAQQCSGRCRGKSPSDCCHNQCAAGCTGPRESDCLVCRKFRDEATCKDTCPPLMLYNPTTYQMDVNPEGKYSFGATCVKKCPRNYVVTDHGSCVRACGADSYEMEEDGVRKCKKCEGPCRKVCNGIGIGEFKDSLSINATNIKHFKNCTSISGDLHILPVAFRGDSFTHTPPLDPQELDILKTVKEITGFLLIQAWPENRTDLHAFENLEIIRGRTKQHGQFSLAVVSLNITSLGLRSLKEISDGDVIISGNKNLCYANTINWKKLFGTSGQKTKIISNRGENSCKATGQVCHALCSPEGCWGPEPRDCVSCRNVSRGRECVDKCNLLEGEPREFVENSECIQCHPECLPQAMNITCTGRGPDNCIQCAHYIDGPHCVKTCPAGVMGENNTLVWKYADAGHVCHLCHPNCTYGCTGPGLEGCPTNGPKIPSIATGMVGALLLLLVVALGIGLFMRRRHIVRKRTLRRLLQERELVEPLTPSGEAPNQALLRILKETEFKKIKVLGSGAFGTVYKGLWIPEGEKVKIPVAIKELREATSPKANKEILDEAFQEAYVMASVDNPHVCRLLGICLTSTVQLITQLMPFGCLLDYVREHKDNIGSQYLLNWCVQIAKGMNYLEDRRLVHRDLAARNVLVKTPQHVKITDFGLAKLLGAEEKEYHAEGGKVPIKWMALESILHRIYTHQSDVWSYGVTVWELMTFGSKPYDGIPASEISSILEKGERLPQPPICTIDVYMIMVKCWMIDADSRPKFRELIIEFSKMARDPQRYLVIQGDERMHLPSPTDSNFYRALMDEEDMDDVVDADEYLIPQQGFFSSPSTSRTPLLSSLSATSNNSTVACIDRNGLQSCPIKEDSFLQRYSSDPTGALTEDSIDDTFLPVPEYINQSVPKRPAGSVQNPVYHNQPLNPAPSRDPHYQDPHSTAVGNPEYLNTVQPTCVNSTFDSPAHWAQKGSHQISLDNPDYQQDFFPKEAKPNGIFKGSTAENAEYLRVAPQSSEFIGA
property measured: IC50

Ask | What value of measured IC50 is listed for COc1cnc2c(-c3[nH]c4c(c3Nc3cccc(Cl)c3OC)C(=O)NCC4)ccnc2c1 [compound 814] ?
Reply | < 100 nM

Ask | // query: CCO[C@H](C)c1ccc2nccc(-c3[nH]c4c(c3Nc3cccc(Cl)c3OC)C(=O)NCC4)c2n1 [compound 753, trifluoroacetic acid]
Reply | < 100 nM

Ask | Also, COc1ncc2nccc(-c3[nH]c4c(c3Nc3cccc(F)c3F)C(=O)NCC4)c2n1 [Compound 805] please.
Reply | < 100 nM

Ask | Field entry: COc1c(Cl)cccc1Nc1c(-c2ccnc(NC3CC3)n2)[nH]c2c1C(=O)NCC2 [compound 112]
Reply | 100 to 1000 nM

Ask | Next: COc1c(Cl)cccc1Nc1c(-c2ccncc2F)[nH]c2c1C(=O)NC[C@H]2CC1COCCO1 (stereo in doubt) [Compound 480]
Reply | < 100 nM

Ask | And the next one, Cc1cc(F)ccc1Nc1c(-c2ccnc(N)n2)[nH]c2c1C(=O)NCC2 [compound 197] ?
Reply | > 1000 nM

Ask | Follow-up item: COc1c(Cl)cccc1Nc1c(-c2ccncc2F)[nH]c2c1C(=O)NCC2CC1CCO1 (single isomer, unassigned) [Compound 784]
Reply | 100 to 1000 nM

Ask | Then this compound: COc1ncc2nccc(-c3[nH]c4c(c3Nc3cccc(Cl)c3OC)C(=O)NCC4)c2n1 [compound 408]
Reply | < 100 nM

Ask | Then COc1c(Cl)cccc1Nc1c(-c2ccncc2F)[nH]c2c1C(=O)NC[C@@H]2CC(F)F [Compound 819] ?
Reply | 100 to 1000 nM

Ask | Again, but for COc1c(Cl)cccc1Nc1c(-c2ccnc(NCC(C)(C)O)n2)[nH]c2c1C(=O)NCC2 [compound 288]
Reply | > 1000 nM

Ask | Similarly, CNc1nccc(-c2[nH]c3c(c2Nc2cccc(Cl)c2OC)C(=O)NCC3)n1 [compound 108] ?
Reply | 100 to 1000 nM

Ask | Can you check COc1c(Cl)cccc1Nc1c(-c2ccncc2F)[nH]c2c1C(=O)NC[C@H]2CCN(C)C [compound 486] next?
Reply | > 1000 nM

Ask | Also COc1c(F)cccc1Nc1c(-c2ccnc3[nH]ccc23)[nH]c2c1C(=O)NCC2 [compound 252] , if possible.
Reply | 100 to 1000 nM

Ask | What do you get for Nc1nccc(-c2[nH]c3c(c2Nc2cccc(Cl)c2F)C(=O)NCC3)n1 [Compound 706] ?
Reply | 100 to 1000 nM

Ask | Also need COc1c(Cl)cccc1Nc1c(-c2ccnc(N)n2)[nH]c2c1C(=O)NC[C@H]2C[C@@H]1COCCO1 [Compound 567] , thanks.
Reply | < 100 nM

Ask | Next compound up: COc1c(F)cccc1Nc1c(-c2ccnc3ccc(OC4(C)COC4)nc23)[nH]c2c1C(=O)NCC2 [Compound 788]
Reply | < 100 nM

Ask | Proceed to COc1c(Cl)cccc1Nc1c(-c2ccnc3ccc(OCC4(C(F)(F)F)CC4)nc23)[nH]c2c1C(=O)NCC2 [compound 758]
Reply | 100 to 1000 nM

Ask | How about this compound: COc1c(Cl)cccc1Nc1c(-c2ccnc(Nc3cnoc3C)n2)[nH]c2c1C(=O)NCC2 [compound 510]
Reply | 100 to 1000 nM

Ask | Next record, please: COc1c(Cl)cccc1Nc1c(-c2ccncc2F)[nH]c2c1C(=O)NC[C@]21CCN(C(C)=O)C1 [compound 491]
Reply | > 1000 nM

Ask | Another compound to check: N#Cc1c(F)cccc1Nc1c(-c2ccnc(N)n2)[nH]c2c1C(=O)NCC2 [compound 200]
Reply | > 1000 nM

Ask | What do you have for COCC[C@@H]1CNC(=O)c2c1[nH]c(-c1ccncc1F)c2Nc1cccc(F)c1OC [421b] ?
Reply | < 100 nM

Ask | Record: COc1c(Cl)cccc1Nc1c(-c2ccnc(N)n2)[nH]c2c1C(=O)NC(CO)C2 (stereo not shown) [Compound 751]
Reply | 100 to 1000 nM

Ask | Next up: COc1c(Cl)cccc1Nc1c(-c2ccnc(NCC(F)F)n2)[nH]c2c1C(=O)NCC2 [Compound 702]
Reply | 100 to 1000 nM

Ask | Note, next up: COc1c(F)cccc1Nc1c(-c2ccncc2F)[nH]c2c1C(=O)NC[C@@H]2CC1COCCO1 (stereo in doubt) [Compound 525]
Reply | < 100 nM

Ask | Item: COc1c(F)cccc1Nc1c(-c2ccncn2)[nH]c2c1C(=O)NCC2 [compound 244]
Reply | > 1000 nM

Ask | Same read-out for COc1c(Cl)cccc1Nc1c(-c2ccnc3ccc(OC4CCC4)nc23)[nH]c2c1C(=O)NCC2 [compound 768] ?
Reply | < 100 nM

Ask | Follow-up entry: COc1ncc2nccc(-c3[nH]c4c(c3Nc3cc(F)cc(Cl)c3OC)C(=O)NCC4)c2n1 [Compound 792]
Reply | < 100 nM

Ask | And what about the compound COc1c(Cl)cccc1Nc1c(-c2ccnc(Nc3cc(C)n(C)n3)n2)[nH]c2c1C(=O)NCC2 [compound 513] ?
Reply | < 100 nM

Ask | What about this compound? COc1c(Cl)cccc1Nc1c(-c2ccnc3c2OCC(=O)N3)[nH]c2c1C(=O)NCC2 [compound 308]
Reply | 100 to 1000 nM

Ask | Also COc1c(Cl)cccc1Nc1c(-c2ccnc3cccnc23)[nH]c2c1C(=O)NCC2 [Compound 683] , if possible.
Reply | < 100 nM

Ask | Next compound up: COc1c(Cl)cccc1Nc1c(-c2ccncc2F)[nH]c2c1C(=O)NC[C@@H]2CCN(C)C [compound 475]
Reply | > 1000 nM
